# Tested on: COLO 205 colon
# assayRemarks: NCI-60 one-dose screen, 48 h
# reportedConditions: 10 µM unless noted
Compounds without any hit were thinned out: in the full panel of roughly 83,000, 20% have a hit. Active and inactive are the calls of the source. Rule for the calls: active = growth percent below 10; inactive = the rest.
Classes used: active, inactive

[[record]]
compound = "C=C(C=O)[C@@H]1CC[C@]2(C)[C@H](C(=O)C=C3[C@H]4C[C@](C)(C(=O)OC)CC[C@]4(C)CC[C@]32C)[C@@]1(C)CCC#N"
assignedcategory = "inactive"

[[record]]
compound = "Cn1cc(-c2nnc(N)nc2-c2c[nH]c3ccc(F)cc23)c2cc(F)ccc21"
assignedcategory = "inactive"

[[record]]
compound = "c1cc(-c2nc3ccc4[nH]ncc4c3c3c2CCCC3)[nH]n1"
assignedcategory = "inactive"

[[record]]
compound = "COc1ccc2c(c1)c(-c1cc(N)n3nc(-c4cn(C)c5ccc(OC)cc45)cc3n1)cn2C"
assignedcategory = "inactive"

[[record]]
compound = "CC1(C)[C@@H](O)CC[C@]2(C)[C@H]3CC[C@@H]4[C@H]5[C@H](C(=O)/C=C\\c6ccc([N+](=O)[O-])cc6)CC[C@]5(O)CC[C@@]4(C)[C@]3(C)CC[C@@H]12"
assignedcategory = "inactive"

[[record]]
compound = "C=CCOc1cccc(/C=C2\\SC(=S)N(C3CC(=O)N(c4ccc(Br)cc4)C3=O)C2=O)c1 (stereo not drawn)"
assignedcategory = "inactive"

[[record]]
compound = "N#C/C(=C\\c1ccc(-c2ccc(Cl)cc2Cl)o1)c1ccc(F)cc1"
assignedcategory = "inactive"

[[record]]
compound = "C#CCOc1ccc(/C=N\\Nc2nc(-c3ccc(C)cc3)cs2)cc1OC"
assignedcategory = "inactive"

[[record]]
compound = "Cc1ccc(-c2cc3nc(C(Cl)Cl)nc(-c4ccco4)n3n2)cc1"
assignedcategory = "active"

[[record]]
compound = "O=C(Nc1ccc2c(ccn2Cc2ccccn2)c1)c1cnccn1"
assignedcategory = "inactive"

[[record]]
compound = "COc1ccc([C@H]2c3[nH]c4ccccc4c3C[C@H]3C(=O)N(C4CCN(Cc5c(Cl)cccc5Cl)CC4)CC(=O)N23)c(OC)c1"
assignedcategory = "inactive"

[[record]]
compound = "CC(=O)c1cc(C(=O)N2c3ccccc3Sc3ccccc32)n2ccc3ccccc3c12"
assignedcategory = "inactive"

[[record]]
compound = "NC(N)=Nc1ccc(Oc2cccc(NC(N)=Nc3ccc(Br)cc3)c2)cn1"
assignedcategory = "inactive"

[[record]]
compound = "CN(C)CCN(C)c1ccc2ncc(C#Cc3cncc(C(=O)Nc4ccc(CN5CCN(C)CC5)c(C(F)(F)F)c4)c3)n2n1"
assignedcategory = "inactive"

[[record]]
compound = "NS(=O)(=O)c1ccc(Nc2nc(N/N=C/c3c[nH]c4ccccc34)nc(Nc3ccccc3)n2)cc1"
assignedcategory = "inactive"

[[record]]
compound = "COc1ccc(C2c3sc4c(C)cccc4c3Oc3nc(CC(=O)Nc4ccccc4)[nH]c(=O)c32)cc1 (stereo not drawn)"
assignedcategory = "inactive"

[[record]]
compound = "Cc1ccc(NC(=O)c2ccc(CN3CCOCC3)c(C(F)(F)F)c2)cc1Oc1ccc(-c2[nH]nc3ncnc(N)c23)cc1"
assignedcategory = "inactive"

[[record]]
compound = "N/C(=N\\C(N)=N\\c1nc2ccccc2s1)c1cccc(F)c1"
assignedcategory = "inactive"

